Values were extracted from PubChem BioAssay AID1159580.

Entries annotated with measured normalized growth
- test_details: chemical genetic growth profiling, strain panel (AID 1159580);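 further: tested at 20 µM; growth read once vehicle control cultures reached saturation at 30 °C; 1 = growth at the plate median or of vehicle wells; lower values mean less growth of the strain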
- condition_description: S. cerevisiae deletion strains, growth OD, locus YPL106C, strain sse1, active compounds read low
The campaign covered roughly 5,500 compounds. About 2,000 (36%) were called active. About 18% were inconclusive and are not listed. The list shows a part of the results.
Could you respond with only the numeric value?

INSERT INTO assay_data (compound, observation_type, experimental_value) VALUES
  ('CN1C[C@H](C(=O)N[C@]2(C)O[C@@]3(O)[C@@H]4CCCN4C(=O)[C@H](Cc4ccccc4)N3C2=O)C[C@@H]2c3cccc4[nH]cc(c34)C[C@H]21', 'normalized growth', 0.967),
  ('CCC(=O)c1c(O)cc(O)cc1O', 'normalized growth', 0.938),
  ('Cc1cc(OC(=O)c2c(C)cc(O)cc2O)cc(O)c1C(=O)O', 'normalized growth', 0.99),
  ('CC/C(=C(/CC)c1ccc(O)cc1)c1ccc(O)cc1', 'normalized growth', 1.12),
  ('CCOC(=O)c1c(C)cc(O)cc1O', 'normalized growth', 0.88);

Please examine the following record next.
Look up normalized growth: CCC(N)C(O)c1ccc(O)c(O)c1 (stereo unspecified) 0.94

---

- test_details: chemical genetic growth profiling, strain panel (AID 1159580)
- condition_description: S. cerevisiae deletion strains, growth OD, locus YDL028C, strain MPS1, active compounds read low
Among all 5,500 compounds or so, about 2,000 (36%) were called active. Inconclusive results (about 18%) are left out. The list shows a part of the results.
observation_type: normalized growth

INSERT INTO assay_data (structure_smiles_string, experimental_value) VALUES
  ('O=C(Nc1ccccc1)Nc1ccc(Cl)cc1[N+](=O)[O-]', '0.974 (inactive)'),
  ('Oc1c(Cl)cc(Cl)cc1C=Nc1ccc(Sc2ccccc2)nc1Sc1ccccc1', '0.922 (inactive)'),
  ('Oc1c(Br)cc(Br)cc1/C=N\n1cnnc1', '0.941 (inactive)'),
  ('O=C1Nc2ccccc2/C1=C\c1ccc(Cl)cc1', '0.947 (inactive)');

Look up normalized growth: "Oc1c(Br)cc(Br)cc1C=Nc1ccccn1" 0.96 (inactive)

Look up normalized growth: "Oc1c(Br)cc(Br)cc1C=Nc1ccc(Sc2ccccc2)nc1Sc1ccccc1" 0.917 (inactive)

---

- test_details: chemical genetic growth profiling, strain panel (AID 1159580)
- condition_description: S. cerevisiae deletion strains, growth OD, locus YPL204W, strain HRR25
The campaign covered roughly 5,500 compounds. About 2,000 (36%) were called active. Another 18% or so got no clear call; they are omitted. No stated cut-off is given here; in the data, active means normalized growth mostly below about 0.91 (no sharp cut-off); inconclusive means no clear call, values can overlap the other calls; inactive means mostly above about 0.92. The list shows a part of the results.
One label from this list, please: active, inactive

INSERT INTO measurements (compound, class_label) VALUES
  ('O=C1Nc2ccccc2/C1=C\c1cccc([N+](=O)[O-])c1', 'inactive');

Please state the recorded outcome for this compound: "Cc1ccc(C)n1-c1ccc(/C=C2/C(=O)Nc3ccccc32)cc1" inactive

Please state the recorded outcome for this compound: "CN(C)C=Nc1nnc(Sc2nc3c(Cl)cc(Cl)cc3s2)s1" inactive

Please state the recorded outcome for this compound: "Oc1c(Br)cc(Br)cc1C=Nc1ccccn1" active

Please state the recorded outcome for this compound: "Cc1ccc(NNC(=O)c2cccs2)cc1Cl" inactive

Please state the recorded outcome for this compound: "O=C1Nc2ccccc2/C1=C\c1ccc(Cl)cc1" inactive

Please state the recorded outcome for this compound: Cc1nnc2n1N=C(c1ccc(CC(C)C)cc1)C(C)S2 (stereo not drawn) inactive

Please state the recorded outcome for this compound: "c1ccc(-c2nnc(-c3ccccn3)nc2-c2ccccc2)cc1" active

Please state the recorded outcome for this compound: "Cc1cc(Cl)ccc1NNC(=O)c1sccc1Br" inactive

Please state the recorded outcome for this compound: "O/N=C(/c1ccc(Cl)cc1)c1cc2ccccc2o1" inactive

Please state the recorded outcome for this compound: "O=C1Nc2ccccc2/C1=C/c1ccc(Oc2ccccc2)nc1" inactive

Please state the recorded outcome for this compound: "CC(C)(C)NC(=S)N/N=C\c1ccccc1O" inactive

Please state the recorded outcome for this compound: "COc1ccccc1NC(=S)N/N=C\c1ccccc1O" inactive

Please state the recorded outcome for this compound: "Oc1c(Cl)cc(Cl)cc1/C=N\NC(=S)Nc1cc(C(F)(F)F)cc(C(F)(F)F)c1" active

Please state the recorded outcome for this compound: "COc1ccc(/C=C2/C(=O)Nc3ccccc32)cc1" inactive

Please state the recorded outcome for this compound: OC1(C(F)(F)F)CC(c2ccc3ccccc3c2)=NN1 (stereo not drawn) active

Please state the recorded outcome for this compound: "O=C1/C(=C/c2ccccn2)CCc2ccccc21" inactive

---

Entries annotated with measured normalized growth
- test_details: chemical genetic growth profiling, strain panel (AID 1159580);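 further: tested at 20 µM; growth read once vehicle control cultures reached saturation at 30 °C; 1 = growth at the plate median or of vehicle wells; lower values mean less growth of the strain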
- condition_description: S. cerevisiae deletion strains, growth OD, locus YDR334W, strain swr1, active compounds read low
Among all 5,500 compounds or so, about 2,000 (36%) were called active. Another 18% or so got no clear call; they are omitted. This is one part of the list.

Recorded results for 3 molecules are shown here.
INSERT INTO assay_data (molecule, observation_type, experimental_value) VALUES
  ('CNC(=O)Oc1cccc2c1OC(C)(C)O2', 'normalized growth', '1.01 (inactive)'),
  ('CC1(C)C=CC(=O)[C@@]2(C)C1CC(=O)[C@]1(C)C2CC[C@@]2(C)[C@H](c3ccoc3)OC(=O)C3OC321 (some centres undefined)', 'normalized growth', '1 (inactive)'),
  ('CC(=O)O[C@@H]1CC2C(C)(C)C(=O)C=C[C@]2(C)C2CC[C@@]3(C)[C@H](c4ccoc4)OC(=O)[C@H]4O[C@]43[C@@]21C (some centres undefined)', 'normalized growth', '1.02 (inactive)');

Look up normalized growth: CCCCC1C(=O)N(c2ccccc2)N(c2ccc(O)cc2)C1=O (centres undefined) 1.01 (inactive)

Look up normalized growth: CC1(C)C2CC(=O)[C@]3(C)C(CC[C@@]4(C)[C@H](c5ccoc5)OC(=O)[C@H]5O[C@]543)[C@@]2(C)C(=O)C[C@H]1O (some centres undefined) 1.01 (inactive)

Look up normalized growth: CNC(C)C(O)c1ccccc1 (centres undefined) 1.02 (inactive)

Look up normalized growth: "CCOCN(C(=O)CCl)c1c(C)cccc1CC" 0.986 (inactive)

Look up normalized growth: "Cc1cc(C2CCCCC2)n(O)c(=O)c1" 0.0673 (active)

Look up normalized growth: CC1(C)C(=O)C=C[C@@]2(C)C1C=C[C@]1(C)C2CC[C@@]2(C)[C@H](c3ccoc3)OC(=O)C3OC321 (some centres undefined) 0.983 (inactive)

---

- test_details: chemical genetic growth profiling, strain panel (AID 1159580);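 further: tested at 20 µM; growth read once vehicle control cultures reached saturation at 30 °C; 1 = growth at the plate median or of vehicle wells; lower values mean less growth of the strain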
- condition_description: S. cerevisiae deletion strains, growth OD, locus YHR079C, strain IRE1, active compounds read low
About 2,000 (36%) of roughly 5,500 compounds were called active. Roughly 18% stayed inconclusive and do not appear here. The list shows a part of the results.
observation_type: normalized growth

Recorded results for 2 compounds are shown here.
INSERT INTO measurements (compound, experimental_value) VALUES
  ('COc1ccc(-c2oc3c(CC=C(C)C)c(O[C@@H]4O[C@H](CO)[C@@H](O)[C@H](O)[C@H]4O)cc(O)c3c(=O)c2O[C@@H]2O[C@@H](C)[C@H](O)[C@@H](O)[C@H]2O)cc1', '1.03 (inactive)'),
  ('CCN[C@@H]1C[C@H](N)[C@@H](O[C@H]2OC(CN)=CC[C@H]2N)[C@H](O)[C@H]1OC1OC[C@](C)(O)[C@H](NC)[C@H]1O (stereo partly specified)', '1.02 (inactive)');

Look up normalized growth: C[C@@H]1O[C@@H](OC[C@H]2OC(Oc3c(-c4ccc(OCCO)c(OCCO)c4)oc4cc(OCCO)cc(O)c4c3=O)[C@H](O)[C@@H](O)[C@@H]2O)[C@H](O)[C@H](O)[C@H]1O (stereo partly specified) 1.02 (inactive)

Look up normalized growth: CN[C@@H]1C(O)[C@@H](O[C@@H]2[C@@H](O)[C@H](O[C@H]3OC(CN)=CC[C@H]3N)[C@@H](N)C[C@H]2N)OC[C@]1(C)O (stereo partly specified) 0.95 (inactive)

Look up normalized growth: CN[C@@H]1[C@@H](O)C(OC2[C@@H](N)C[C@@H](N)[C@H](O[C@H]3O[C@H](C(C)O)[C@@H](O)[C@H](O)[C@H]3N)[C@H]2O)OC[C@]1(C)O (stereo partly specified) 1.05 (inactive)

Look up normalized growth: "COc1cc(OC)c2c(=O)c(O)c(-c3ccc(OC)c(OC)c3)oc2c1" 0.996 (inactive)

---

- test_details: chemical genetic growth profiling, strain panel (AID 1159580);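 further: tested at 20 µM; growth read once vehicle control cultures reached saturation at 30 °C; 1 = growth at the plate median or of vehicle wells; lower values mean less growth of the strain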
- condition_description: S. cerevisiae deletion strains, growth OD, locus YOR083W, strain WHI5 (second series)
About 2,000 (36%) of roughly 5,500 compounds were called active. Inconclusive results (about 18%) are left out. Cut-off read from the data, not from the text of the source: active = normalized growth mostly below about 0.91 (no sharp cut-off); inconclusive = no clear call, values can overlap the other calls; inactive = mostly above about 0.92. The list shows a part of the results.
One label from this list, please: YES = active, NO = inactive

INSERT INTO results (compound, class_label) VALUES
  ('CCCCCCCCCC(=O)NC(CN1CCOCC1)[C@H](O)c1ccccc1 (stereo not given in full)', 'NO');

Please state the recorded outcome for this compound: "CN1C(C)(C)CCCC1(C)C" NO

Please state the recorded outcome for this compound: "N[C@@H](COP(=O)(O)O)C(=O)O" NO

Please state the recorded outcome for this compound: "COc1ccc(Cl)cc1C(=O)NCCc1ccc(S(=O)(=O)NC(=O)NC2CCCCC2)cc1" NO

Please state the recorded outcome for this compound: "CC(C)(C)c1cc(/C=C(\C#N)C(N)=S)cc(C(C)(C)C)c1O" YES

Please state the recorded outcome for this compound: "CC(C)[C@@]1(NC(=O)[C@@H]2C[C@@H]3c4cccc5[nH]cc(c45)C[C@H]3N(C)C2)O[C@@]2(O)[C@@H]3CCCN3C(=O)[C@H](Cc3ccccc3)N2C1=O" NO
